Assay: Pharmacokinetics in whole blood after a single oral dose (HPLC-MS/MS)
Type: in vivo, CD1 IGS mice
Conditions: CD1 IGS, mouse, whole blood, po, 10 mg/kg, blood, single oral 10 mg/kg
Experimental: Six CD1 IGS mice were administered orally with the compound PA96 in Tween 80 at doses of 10 mg/kg. Blood was collected from the tail after the amputation of a small distal piece. Time points were 5, 10, 30, 60, and 120 min after injection. […] A set of calibrators were prepared in advance, followed by their preparation protocol, and analyzed by HPLC-MS/MS for standard comparison. […]
measurement_kind: half-life

Please report half-life for the following compound: C=C(C)[C@@H]1CC=C(C)[C@@H](Sc2nc[nH]n2)[C@@H]1O [PA96] ~24 min
